# TEST: solvent given as SMILES
# TEST_CONDITIONS: in CCCCO
Output satisfied for solvation free energy, 298 K not less than -10 kcal/mol; output not satisfied otherwise.

STRUCTURE_AS_SMILES	GROUP_LABEL
Cc1ccccc1C(=O)O	satisfied
[2H][2H]	satisfied
CC(=O)Nc1ccc(O)cc1	not satisfied
c1ccc2c(c1)Nc1ccccc1S2	not satisfied
ClCc1ccccc1	satisfied

Qu. Is solvation free energy, 298 K at least -10 kcal/mol? Consider O=C(O)c1ccc([N+](=O)[O-])cc1
Ans. not satisfied

Qu. Is solvation free energy, 298 K at least -10 kcal/mol? Consider C=CCC
Ans. satisfied

Qu. Is solvation free energy, 298 K at least -10 kcal/mol? Consider O=C(C(=O)c1ccccc1)c1ccccc1
Ans. not satisfied

Qu. Is solvation free energy, 298 K at least -10 kcal/mol? Consider COc1cc(Cc2cnc(N)nc2N)cc(OC)c1OC
Ans. not satisfied

* * *

# TEST: solvent given as SMILES
# TEST_CONDITIONS: in CCCCCCCCCC
So basically every entry gets a class from its solvation free energy, 298 K, ranges being LOW (below -5 kcal/mol), MID (-5 kcal/mol to below -3 kcal/mol), HIGH (-3 kcal/mol or more)

MOLECULE	GROUP_LABEL
c1ccccc1	MID
O=C=O	HIGH
CCC(O)C(C)C (stereo unspecified)	MID
C=C	HIGH
CCC(C)(C)O	MID

Qu. Field: class (solvation free energy, 298 K) — entry: FS(F)(F)(F)(F)F
Ans. HIGH

Qu. Field: class (solvation free energy, 298 K) — entry: c1cc2c3c(cccc3c1)CC2
Ans. LOW

Qu. Field: class (solvation free energy, 298 K) — entry: CCCC(O)C(C)C (stereo unspecified)
Ans. LOW

Qu. Field: class (solvation free energy, 298 K) — entry: Oc1cccc(Cl)c1
Ans. LOW

Qu. Field: class (solvation free energy, 298 K) — entry: c1ccc2c(c1)Cc1ccccc1O2
Ans. LOW

Qu. Field: class (solvation free energy, 298 K) — entry: COC(C)=O
Ans. HIGH

* * *

# TEST: solvent given as SMILES
# TEST_CONDITIONS: in O
Task for the reader: assign each of the following compounds its reported solvation free energy, 298 K.
Give bare numbers, in kcal/mol.

Recorded results for 3 compounds are shown here.
COMPOUND	RECORDED_NUMBER
CCN(N=O)C(C)C	-5.46
CC(C)CCCCCCOC(=O)c1ccccc1C(=O)OCCCCCCC(C)C	-6.14
O=C(O)c1cccnc1Nc1cccc(C(F)(F)F)c1	-12.8

# batch size: 6; output solvation free energy, 298 K per entry
1. Cc1ccc(C(=O)O)cc1
2. CCCCCCCI
3. BrCCBr
4. Nc1ccc(S(=O)(=O)Nc2ccnn2-c2ccccc2)cc1
5. CCCCOC(=O)c1ccccc1C(=O)OC(CC)CCCC (stereo not given)
6. COCCO

Ans.
1. -7.35
2. 0.27
3. -2.2
4. -21.2
5. -6.71
6. -6.77

Qu. Using the record for C1CCCCCC1 , state its measured solvation free energy, 298 K.
Ans. 0.79

* * *

# TEST: solvent given as SMILES
# TEST_CONDITIONS: in CCOCCO
Output TRUE for solvation free energy, 298 K not less than -4 kcal/mol; output FALSE otherwise.

Worked cases, answers included:
STRUCTURE_AS_SMILES	GROUP_LABEL
CCCO	FALSE
COC=O	TRUE
O=C(O)c1ccc([N+](=O)[O-])cc1	FALSE

Qu. Is solvation free energy, 298 K at least -4 kcal/mol? Consider COC(C)=O
Ans. TRUE

Qu. Is solvation free energy, 298 K at least -4 kcal/mol? Consider O=C(C(=O)c1ccccc1)c1ccccc1
Ans. FALSE

* * *

# TEST: solvent given as SMILES
# TEST_CONDITIONS: in CCCO
Task for the reader: assign each of the following molecules its reported solvation free energy, 298 K.
One number for each entry, in kcal/mol.

Recorded results for 4 molecules are shown here.
STRUCTURE_AS_SMILES	solvation free energy, 298 K [kcal/mol]
O=O	0.9
C=C	-0.52
CC(C)CC(C)(C)C	-3.67
O=C(O)CCCCC(=O)O	-13.7

Now consider a different molecule.
Qu. Using the record for c1ccc2c(c1)-c1cccc3cccc-2c13 , state its measured solvation free energy, 298 K.
Ans. -11.3

* * *

# TEST: solvent given as SMILES
# TEST_CONDITIONS: in CCCO
The label is condition met for solvation free energy, 298 K below -10 kcal/mol and condition not met for solvation free energy, 298 K equal to or exceeding -10 kcal/mol.

Worked cases, answers included:
STRUCTURE_AS_SMILES	GROUP_LABEL
O=c1cc(-c2ccc(O)c(O)c2)oc2cc(O)cc(O)c12	condition met
Cc1ccccc1	condition not met
CC(=O)Oc1ccccc1C(=O)O	condition met
ClCc1ccccc1	condition not met
ClC(Cl)(Cl)Cl	condition not met
[N-]=[N+]=O	condition not met
COC(=O)c1ccc(O)cc1	condition met

Consider now this further compound.
Qu. # strict comparison: is reported solvation free energy, 298 K < -10 kcal/mol? input = COc1cc(Cc2cnc(N)nc2N)cc(OC)c1OC
Ans. condition met

* * *

# TEST: solvent given as SMILES
# TEST_CONDITIONS: in O
The label is condition met for solvation free energy, 298 K below -4 kcal/mol and condition not met for solvation free energy, 298 K equal to or exceeding -4 kcal/mol.

Worked cases, answers included:
STRUCTURE_AS_SMILES	GROUP_LABEL
O=Cc1ccncc1	condition met
c1ccc2c(c1)OCCOCCOCCOCCOCCO2	condition met
c1ccc2c(c1)-c1cccc3cccc-2c13	condition met
O=C(O)c1ccc([N+](=O)[O-])cc1	condition met
COc1ccc(NS(=O)(=O)c2ccc(N)cc2)nn1	condition met

Qu. # strict comparison: is reported solvation free energy, 298 K < -4 kcal/mol? input = [2H][2H]
Ans. condition not met

Qu. # strict comparison: is reported solvation free energy, 298 K < -4 kcal/mol? input = COC(=O)OC
Ans. condition not met

Qu. # strict comparison: is reported solvation free energy, 298 K < -4 kcal/mol? input = CC(C)(C)c1ccccc1
Ans. condition not met

* * *

Task for the reader: assign each of the following molecules its reported solvation free energy, 298 K.
# TEST: solvent given as SMILES
# TEST_CONDITIONS: in CCCCCCCCO
One number for each entry, in kJ/mol.

Recorded results for 3 molecules are shown here.
STRUCTURE_AS_SMILES	solvation free energy, 298 K / kJ/mol
CCCO	-21
ClC(Br)Br	-20.5
CCCCOC(C)=O	-21

Now consider a different molecule.
Qu. Using the record for CCCC(=O)OCC , state its measured solvation free energy, 298 K.
Ans. -20.3

* * *

# TEST: solvent given as SMILES
# TEST_CONDITIONS: in CCCCCCC
REPORTED_METRIC: solvation free energy, 298 K (kcal/mol)
One number for each entry, in kcal/mol.

Recorded results for 10 molecules are shown here.
STRUCTURE_AS_SMILES	ENDPOINT_UNIT	solvation free energy, 298 K
CN(C)C	kcal/mol	-2.44
Fc1ccccc1	kcal/mol	-4.13
O=c1c2ccccc2sc2ccccc12	kcal/mol	-11
c1ccc2c(c1)Nc1ccccc1S2	kcal/mol	-11.2
C=CCC	kcal/mol	-2.48
CC(C)CC(C)C	kcal/mol	-4.22
CNC=O	kcal/mol	-3.68
c1cc2c3c(cccc3c1)CC2	kcal/mol	-8.89
Clc1ccccc1	kcal/mol	-5.17
ClC(Cl)(Cl)Cl	kcal/mol	-4.09

# batch size: 2; output solvation free energy, 298 K per entry
1. ClCCCl
2. O=S=O

Ans.
-3.7
-1.36

# batch size: 6; output solvation free energy, 298 K per entry
1. CCCO
2. O=C=O
3. CC(=O)CC(=O)c1ccccc1
4. [N-]=[N+]=O
5. Cc1cc(C)cc(O)c1
6. [2H][2H]

Ans.
-2.97
-0.41
-7.87
-0.65
-6.71
1.27

# batch size: 3; output solvation free energy, 298 K per entry
1. CC(C)[N+](=O)[O-]
2. OCCOCCOCCO
3. Oc1cccc(Cl)c1

Ans.
1. -3.81
2. -7.04
3. -6.51

* * *

# TEST: solvent given as SMILES
# TEST_CONDITIONS: in COCCO
REPORTED_METRIC: solvation free energy, 298 K (kcal/mol)
Answers are plain numbers, in kcal/mol.

Recorded results for 5 molecules are shown here.
STRUCTURE_AS_SMILES	RECORDED_NUMBER
O=C=O	-0.65
CC(C)CC(C)C	-2.84
C1CCCCC1	-3.15
Brc1ccccc1	-5.73
CCCC(C)C	-2.53

# batch size: 3; output solvation free energy, 298 K per entry
1. Clc1ccccc1
2. Cc1ccccc1
3. CC(C)(C)Cl

Ans.
1: -5.23; 2: -4.55; 3: -3.3
